Assay: RAM signaling pathway blockade in yeast – S. cerevisiae, Pdr1DBD-CYC8 efflux-inhibited sensitized strain, primary screen (AID 1298);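 note: 0% = DMSO untreated cells without growth and 100% = 10 µM 1-NA-PP1 full growth; higher means more yeast growth rescued from 5-FOA killing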
Conditions: S. cerevisiae cbk1-as DSE1-URA3 strain, 5-FOA growth OD615, 2 d; at 50 µM; hits give high values
measurement_name: RAM network inhibition (%)
Hi! Could you send only the number? It should be in %, unit omitted.

Here are 10 compounds together with their reported answers.
compound=CC(C)c1ccccc1NC(=O)CCCC(=O)O value_reported=2.42
compound=O=C1c2cccc3cccc(c23)C(=O)N1c1nccs1 value_reported=6.64
compound="CCCCC1CC(CSc2ncn[nH]2)OC1=O (centres undefined)" value_reported=0.01
compound="CCOc1ccc(C2CC(c3ccc(F)cc3)Nc3nc(N)nn32)cc1 (centres undefined)" value_reported=0.88
compound=Cn1c(=O)c(C(=O)Nc2ncccn2)c(O)c2ccccc21 value_reported=-1.44
compound="Cc1oc(-c2cccs2)nc1CS(=O)CC(=O)NCCCN1CC(C)CC(C)C1 (centres undefined)" value_reported=3.39
compound="CCn1c(SCC(=O)N2CCCC2)nc2c(c1=O)SC(C)C2 (centres undefined)" value_reported=3.14
compound=NC(=O)c1oc2ccccc2c1NC(=O)CCc1ccccc1 value_reported=3.76
compound=COc1ccc(-n2c(Cc3cccn3C)nnc2SCC(=O)NC2CCCC2)cc1 value_reported=3.89
compound=COC(=O)c1c(N2C(=O)CCC2=O)sc2c1CCCC2 value_reported=-1.57

// query Item `CC(=O)C1=C(C)Nc2cc(C(F)(F)F)ccc2S1` has what recorded RAM network inhibition?
// result 4.09

// query Entry to check: `CC(=O)c1cccc(NC(=O)c2cnn3ccccc23)c1`
// result 4.75

// query Entry to check: `Cc1cc(OCCCCCNCCO)ccc1Cl`
// result 1.6

// query Entry to check: `CN1CCN(c2ncnc3c2sc2nc(N4CCCC4)c4c(c23)CC(C)(C)OC4)CC1`
// result -0.84

Data credit: PubChem BioAssay
